- study target: T1, human IL-4Rα on TF-1 cells (human, UniProt P24394 26-825)
- T1 sequence (looked up): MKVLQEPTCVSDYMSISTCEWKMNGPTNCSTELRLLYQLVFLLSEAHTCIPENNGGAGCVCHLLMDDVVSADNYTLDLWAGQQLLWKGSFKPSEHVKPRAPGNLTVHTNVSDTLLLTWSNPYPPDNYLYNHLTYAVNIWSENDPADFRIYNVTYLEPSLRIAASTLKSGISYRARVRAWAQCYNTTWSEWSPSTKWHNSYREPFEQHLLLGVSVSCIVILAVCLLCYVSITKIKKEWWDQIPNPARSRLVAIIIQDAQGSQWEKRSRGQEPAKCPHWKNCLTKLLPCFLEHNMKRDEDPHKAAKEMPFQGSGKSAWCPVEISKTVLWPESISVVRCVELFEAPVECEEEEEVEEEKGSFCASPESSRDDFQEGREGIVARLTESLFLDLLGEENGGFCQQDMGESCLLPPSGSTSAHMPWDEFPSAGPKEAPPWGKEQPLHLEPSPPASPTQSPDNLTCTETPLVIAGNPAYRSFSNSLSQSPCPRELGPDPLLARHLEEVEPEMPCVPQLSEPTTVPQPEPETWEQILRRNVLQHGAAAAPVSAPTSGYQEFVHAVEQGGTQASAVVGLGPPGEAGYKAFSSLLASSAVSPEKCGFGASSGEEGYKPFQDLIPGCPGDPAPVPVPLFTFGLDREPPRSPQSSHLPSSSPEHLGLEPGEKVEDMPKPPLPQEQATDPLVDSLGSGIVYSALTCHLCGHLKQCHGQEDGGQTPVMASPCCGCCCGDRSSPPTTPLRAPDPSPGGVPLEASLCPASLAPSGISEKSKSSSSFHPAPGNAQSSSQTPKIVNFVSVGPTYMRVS
- method notes: cell-based or functional assay
# reported IC50 (pM), IL-4 induced TF-1 cell proliferation; entries follow
Report only the number, with the unit pM understood.

binder | recorded number
Antibody 15 IgG (antibody, V domains shown) VH: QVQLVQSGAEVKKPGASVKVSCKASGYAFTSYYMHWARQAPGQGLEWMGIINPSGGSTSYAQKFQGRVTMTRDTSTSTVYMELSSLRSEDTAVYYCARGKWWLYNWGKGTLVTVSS VL: QSVLTQPPSVSAAPGQKVTISCSGGSSNIGNSYVSWYQQLPGTAPKLLIYDNNKRPSGIPDRFSGSKSGTSATLAITGLQTGDEADYYCGTWDTSTHRHPLFGTGTKLTVL | 2.8

[Q] Which value of IC50 (pM), IL-4 induced TF-1 cell proliferation has been reported for Antibody 8 IgG (antibody, V domains shown) VH: QVQLVQSGAEVKKPGASVKVSCKASGYAFTSYYMHWARQAPGQGLEWMGIINPSGGSTSYAQKFQGRVTMTRDTSTSTVYMELSSLRSEDTAVYYCARGKWWWQYWGKGTLVTVSS VL: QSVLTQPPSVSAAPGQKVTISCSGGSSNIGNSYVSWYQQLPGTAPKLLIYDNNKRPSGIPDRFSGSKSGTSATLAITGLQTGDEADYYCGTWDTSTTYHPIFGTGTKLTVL in the records?
[A] 7.9

Just for reference, patent US20180057596A1 is where these values come from.
